- test-name: inhibitors of platelet dense granule secretion, primary screen, cell-based, MLPCN, human platelets (AID 1663)
- condition-summary: human platelet-rich plasma, SFLLRN dense granule ATP release, luminescence; stronger effect = higher value;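 compounds screened at 7.5 µM in platelet-rich plasma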
The whole screen tested about 300,000 compounds, of which about 660 (0.22%) were called active. This excerpt belongs to a sample that is enriched for actives.
experimental-endpoint: inhibition

>  <molecule>
Cc1sc2ncn(CC(=O)NCCCC(=O)N(C)Cc3ccccc3)c(=O)c2c1C

>  <inhibition>
10.8% (inactive)

$$$$
>  <molecule>
Cc1nn(CC(=O)Nc2ccc3c(c2)OCO3)c(C)c1[N+](=O)[O-]

>  <inhibition>
11.1% (inactive)

$$$$
>  <molecule>
COc1cc2c(cc1OC)/C(=C/C(=O)c1ccc(NC(C)=O)cc1)NCC2

>  <inhibition>
55.3% (active)

$$$$
>  <molecule>
Cn1cc([N+](=O)[O-])c(C(=O)Nc2ccc3c(c2)OCCO3)n1

>  <inhibition>
31.8% (inactive)

$$$$

From here, focus on the item given below.
IN: Please look up its inhibition: O=C(Nc1ccc(S(=O)(=O)NCC2CCCO2)cc1)c1ccc(F)cc1 (stereo not given)
OUT: -4.99% (inactive)

---

- test-name: inhibitors of platelet dense granule secretion, primary screen, cell-based, MLPCN, human platelets (AID 1663)
- condition-summary: human platelet-rich plasma, SFLLRN dense granule ATP release, luminescence;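 compounds screened at 7.5 µM in platelet-rich plasma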
The whole screen tested about 300,000 compounds, of which about 660 (0.22%) were called active.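 The calls were made as follows: active = mean replicate score, as percent of positive control, at or above 50; inconclusive = mean below 50 but at least one replicate at or above 50; inactive = mean and every replicate below 50.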 For the sample, actives were picked, then their nearest neighbours and some compounds at random.
In this exercise, the only acceptable responses are y = active, n = inactive

Below are worked cases with known answers.
>  <compound>
COc1ccc(CNC(=O)c2cc(C(=O)C3CC3)c[nH]2)cc1

>  <label-class>
n

$$$$
>  <compound>
CCOc1ccc(/C(O)=C2\C(=O)C(=O)N(c3ccc(OC)cc3)C2c2ccccc2[N+](=O)[O-])cc1 (stereo not given)

>  <label-class>
n

$$$$

IN: Assay outcome for Cc1cccc(N2CC(C)Cn3c2nc2c3c(=O)n(CC(=O)OCc3ccccc3)c(=O)n2C)c1 (stereo not given) : what was it?
OUT: y

IN: Assay outcome for "CN(CCO)c1ccc(/C=N/Nc2nncc3ccccc23)cc1" : what was it?
OUT: y

IN: Assay outcome for "COc1cc(/C=N/Nc2nn3cnnc3c3ccccc23)cc(OC)c1OC" : what was it?
OUT: n

IN: Assay outcome for "CC(=O)N1CCN(CC(c2ccccc2)c2ccccc2)CC1" : what was it?
OUT: n

IN: Assay outcome for "CN1CCN(c2ccc(NC(=O)c3ccccc3)cc2)CC1" : what was it?
OUT: n

IN: Assay outcome for "CC[n+]1cc(C)ccc1/C=C/c1ccc(N(C)C)cc1" : what was it?
OUT: n

IN: Assay outcome for CCOCCCN(C(=O)Cn1nnc(-c2ccc(OC)c(OC)c2)n1)C(CC)C(=O)NC1CCCC1 (stereo not given) : what was it?
OUT: n

IN: Assay outcome for "COc1cccc(C(=O)Nc2ccc(N3CCN(C(=O)c4ccco4)CC3)cc2)c1" : what was it?
OUT: n

---

- test-name: inhibitors of platelet dense granule secretion, primary screen, cell-based, MLPCN, human platelets (AID 1663)
- condition-summary: human platelet-rich plasma, SFLLRN dense granule ATP release, luminescence; stronger effect = higher value;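 compounds screened at 7.5 µM in platelet-rich plasma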
Among all 300,000 compounds or so, about 660 (0.22%) were called active. This is one part of a sample in which actives are shown more often than they occur.
experimental-endpoint: inhibition (%)
Entry rule: numbers only, all in %.

Illustrative cases are given below, each with its answer.
>  <compound>
C=CCN(C(=O)Nc1ccc2c(c1)nc(C)n2C)c1ccccc1

>  <inhibition (%)>
3.61

$$$$
>  <compound>
CN=C1S/C(=C\c2c(OC)cc(OC)cc2OC)C(=O)N1C

>  <inhibition (%)>
10.3

$$$$
>  <compound>
CC(C)Oc1ccc(CCc2n[nH]c(=S)n2Cc2ccccc2)cc1

>  <inhibition (%)>
-6.11

$$$$
>  <compound>
CC(C)(CNCC(O)c1ccccc1)N1CCOCC1 (stereo not drawn)

>  <inhibition (%)>
1.36

$$$$
>  <compound>
Cc1c(Cl)cccc1NC(=S)NCC(O)c1ccccc1 (stereo not drawn)

>  <inhibition (%)>
3.98

$$$$

IN: Please look up its inhibition: "COc1ccc(C(=O)OCC(=O)NC(=O)CCSc2ccccc2)cc1"
OUT: -1.32

IN: Please look up its inhibition: Brc1ccc(C2CC(c3ccccc3)=Nc3ccccc3N2)cc1 (stereo not drawn)
OUT: 7.02

IN: Please look up its inhibition: "O=C(Oc1ccc(Br)cc1)c1cccnc1"
OUT: 3.93

IN: Please look up its inhibition: "COC(=O)CN1C(=O)C(C)(C)Oc2ccc(C(=O)Nc3cccc(OC)c3)cc21"
OUT: -3.5

IN: Please look up its inhibition: "COC(C[C@@H](O)[C@H](C)[C@H](O)COCc1ccccc1)OC"
OUT: -0.14

IN: Please look up its inhibition: "COC(=O)[C@@]12CCCN1[C@H](c1ccc(-c3ccc(F)cc3)c(OC)c1)[C@H]1C(=O)N(C)C(=O)[C@H]12"
OUT: 0.984

IN: Please look up its inhibition: Cc1ccc(S(=O)(=O)N2CCOCC2)cc1C(=O)OC1CCCCC1=O (stereo not drawn)
OUT: -6.92

IN: Please look up its inhibition: "Cc1nc2cc(NC(=O)Nc3cccc(F)c3)ccc2n1C"
OUT: 56.5

IN: Please look up its inhibition: "CC(=O)Nc1ccc(CN2CCC(Oc3ccc(C(=O)N4CCCC4)cc3)CC2)cc1"
OUT: -7.89

IN: Please look up its inhibition: "COc1ccc(NC(=O)c2cc(-c3ccc(C)cc3)on2)cc1"
OUT: 7.98

---

- test-name: inhibitors of platelet dense granule secretion, primary screen, cell-based, MLPCN, human platelets (AID 1663)
- condition-summary: human platelet-rich plasma, SFLLRN dense granule ATP release, luminescence; stronger effect = higher value;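 compounds screened at 7.5 µM in platelet-rich plasma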
Among all 300,000 compounds or so, about 660 (0.22%) were called active. For the sample, actives were picked, then their nearest neighbours and some compounds at random.
experimental-endpoint: inhibition

>  <molecule>
O=S(=O)(c1ccccc1)N1CCc2ccccc21

>  <inhibition>
2.42% (inactive)

$$$$
>  <molecule>
O=C(CN1CCOCC1)N1CCCc2c1c(=O)oc1ccc(OCc3ccccc3)cc21

>  <inhibition>
-1.74% (inactive)

$$$$
>  <molecule>
CCOC(=O)/C=C/c1ccc(C(F)(F)F)cc1S(=O)(=O)NC(C)(C)C

>  <inhibition>
0.739% (inactive)

$$$$

IN: Please look up its inhibition: "Oc1ccc(CNc2ccccc2O)cc1"
OUT: 4.21% (inactive)

IN: Please look up its inhibition: "CCCCC(=O)Nc1ccccc1N1CCN(c2ccc(F)cc2)CC1"
OUT: 2.05% (inactive)

IN: Please look up its inhibition: "COc1cc(SC)ccc1C(=O)Nc1cc(C)ccn1"
OUT: 5.66% (inactive)

IN: Please look up its inhibition: COc1cccc(C(C(=O)NC2CCCC2)N(C(=O)c2ccco2)c2cccc(C(C)=O)c2)c1OC (stereo unspecified)
OUT: -1.88% (inactive)

IN: Please look up its inhibition: "Nc1nonc1-n1nnc(C(=O)N/N=C/c2ccc(Cl)cc2)c1-c1ccc2c(c1)OCO2"
OUT: 2.68% (inactive)

IN: Please look up its inhibition: "Cc1onc(C(=O)Nc2ccc3c(c2)OCO3)c1[N+](=O)[O-]"
OUT: 75.7% (active)

IN: Please look up its inhibition: O=C(CCn1nnnc1CN1CCOCC1)N1CCC(c2ccccc2Cl)C1 (stereo unspecified)
OUT: 2.44% (inactive)

IN: Please look up its inhibition: CC1CCC2(CC1)NC(=O)N(Cc1nnc(-c3cccs3)o1)C2=O (stereo unspecified)
OUT: 3.04% (inactive)

---

- test-name: inhibitors of platelet dense granule secretion, primary screen, cell-based, MLPCN, human platelets (AID 1663)
- condition-summary: human platelet-rich plasma, SFLLRN dense granule ATP release, luminescence;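 compounds screened at 7.5 µM in platelet-rich plasma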
About 660 (0.22%) of roughly 300,000 compounds were called active.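 The calls were made as follows: active = mean replicate score, as percent of positive control, at or above 50; inconclusive = mean below 50 but at least one replicate at or above 50; inactive = mean and every replicate below 50.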 Shown is part of a subset that was picked to be rich in actives.
In this exercise, the only acceptable responses are active, inactive

>  <molecule>
CCN1CCN(C(=O)C2CCCN(S(=O)(=O)c3ccc(OC)c(OC)c3)C2)CC1 (configuration not stated)

>  <label-class>
inactive

$$$$
>  <molecule>
c1ccc2[nH]c(-c3nc4ccccc4[nH]3)nc2c1

>  <label-class>
active

$$$$
>  <molecule>
COc1ccc(-c2cc(-c3ccc(N)cc3)nc(N)c2C#N)cc1OC

>  <label-class>
inactive

$$$$
>  <molecule>
CCOc1ccc(S(=O)(=O)Nc2cccc(C(=O)NCC3(N4CCCCC4)CCCCC3)c2)cc1

>  <label-class>
inactive

$$$$
>  <molecule>
Cc1cnc(NC(=O)c2ccccn2)s1

>  <label-class>
active

$$$$
>  <molecule>
CC(=O)N/C(=C\c1ccccc1)C(=O)OC(C)C(=O)N(C)c1ccccc1 (configuration not stated)

>  <label-class>
inactive

$$$$

IN: Assay outcome for "Cc1cnc(NC(=O)c2ccc(Cl)nc2)s1" : what was it?
OUT: inactive

IN: Assay outcome for "CCCCc1ccc(S(N)(=O)=O)cc1" : what was it?
OUT: inactive

IN: Assay outcome for "O=C(Nc1nnc(C2CC2)s1)c1ccccn1" : what was it?
OUT: inactive

IN: Assay outcome for N#Cc1c(N)nc2c3c(sc(=N)c2c1N)NC(=O)CC3c1ccccc1Cl (configuration not stated) : what was it?
OUT: inactive

IN: Assay outcome for COc1ccc(C2CC(=O)Nc3sc(=N)c4c(N)c(C#N)c(N)nc4c32)cc1OC (configuration not stated) : what was it?
OUT: active

IN: Assay outcome for "CN(C)c1nc(=Nc2cccc(Cl)c2)ss1" : what was it?
OUT: inactive
